These measurements were taken from PubChem BioAssay AID1021.

target: Induced myeloid leukemia cell differentiation protein Mcl-1 (Homo sapiens); experiment: disruptors of Mcl-1 and Bid BH3 peptide – biochemical, TR-FRET, 1536-well, primary screen (AID 1021); settings: TR-FRET Mcl-1/Bid-Dy647 peptide binding, at 21.7 µM, active compounds read high;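 further: His-tagged Mcl-1 with europium anti-His antibody binding Bid BH3 peptide; 0% = Mcl-1 plus peptide wells and 100% = peptide-only wells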
Among all 220,000 compounds or so, about 2,100 (0.95%) were called active. The full list was thinned out, with actives kept by preference.
reported.property: inhibition (%)

compound	reported.property	unit.spec	data.value
CC1COc2ccccc2N1C(=O)c1cccnc1Cl (centres undefined)	inhibition	%	-17.1
COc1ccc2nc(Nc3nc4cc5c(cc4s3)OCCO5)sc2c1	inhibition	%	-62.6
O=C(O)CSCC(=O)Nc1cccc(C(F)(F)F)c1	inhibition	%	-0.04
CCS(=O)(=O)c1ccc2c(c1)N(S(=O)(=O)c1ccccc1)CC(C(=O)O)O2 (centres undefined)	inhibition	%	52.3
COc1cccc(NC(=O)CN(C)C(C)C(=O)Nc2ccc(C#N)cc2)c1 (centres undefined)	inhibition	%	-15.1
O=C(N/N=C/c1ccc([N+](=O)[O-])o1)c1cccc(S(=O)(=O)N2CCOCC2)c1	inhibition	%	-61.1
COc1ccc(C2c3c(C)nn(-c4ccccc4)c3NC(=O)N2c2ccccc2)cc1 (centres undefined)	inhibition	%	76.8
Cc1nn(-c2ccccc2)c2c1C(c1cccc([N+](=O)[O-])c1)N(c1ccccc1)C(=O)N2 (centres undefined)	inhibition	%	-12.3
CNC1(c2nnnn2-c2c(C)cccc2C)CCOC(C)(C)C1 (centres undefined)	inhibition	%	-15.5
Cc1cc(=O)oc2c(C(=O)c3ccccc3)c(OCC(N)=O)ccc12	inhibition	%	-15.3
CCS(=O)(=O)c1ccc2oc(SCC(=O)N3c4ccccc4CC3C)nc2c1 (centres undefined)	inhibition	%	-1.51
CNC(=O)c1cccc2nc3ccccc3nc12	inhibition	%	-18.3
COc1ccc(C(=O)COC(=O)COc2ccc(C)c(C)c2)cc1	inhibition	%	11.1
O=C(COC(=O)Cn1cnc2ccccc2c1=O)NCc1ccccc1Cl	inhibition	%	8.62
COc1ccc2nc(Nc3nc4ccc(NC(C)=O)cc4s3)sc2c1	inhibition	%	72.8
O=[N+]([O-])c1cc(Cl)cc(/C=N/NC(=S)Nc2cc(S(=O)(=O)N3CCOCC3)ccc2Cl)c1O	inhibition	%	91.1
CN(Cc1ccccn1)Cc1nc(-c2ccc(Cl)cc2)no1	inhibition	%	3.34
COc1ccc(-n2c(C)nc3c(cnn3-c3ccccc3)c2=O)cc1	inhibition	%	-3.33
CS(=O)(=O)N(CC(=O)NC1CCCC1)Cc1ccc(F)cc1	inhibition	%	-0.58

---

target: Induced myeloid leukemia cell differentiation protein Mcl-1 (Homo sapiens) (UniProt Q07820); assay: disruptors of Mcl-1 and Bid BH3 peptide – biochemical, TR-FRET, 1536-well, primary screen (AID 1021); conditions: TR-FRET Mcl-1/Bid-Dy647 peptide binding, at 21.7 µM, active compounds read high;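 further: His-tagged Mcl-1 with europium anti-His antibody binding Bid BH3 peptide; 0% = Mcl-1 plus peptide wells and 100% = peptide-only wells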
Sequence (Q07820 whole entry, looked up): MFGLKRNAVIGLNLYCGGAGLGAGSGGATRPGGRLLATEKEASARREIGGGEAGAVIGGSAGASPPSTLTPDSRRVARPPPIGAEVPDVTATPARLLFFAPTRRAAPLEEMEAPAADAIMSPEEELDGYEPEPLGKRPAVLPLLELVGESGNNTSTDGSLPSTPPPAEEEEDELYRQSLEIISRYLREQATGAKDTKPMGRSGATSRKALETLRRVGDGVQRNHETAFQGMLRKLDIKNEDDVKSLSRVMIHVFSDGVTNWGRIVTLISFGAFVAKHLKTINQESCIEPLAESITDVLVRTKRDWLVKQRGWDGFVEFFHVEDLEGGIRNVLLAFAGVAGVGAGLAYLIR
The campaign covered roughly 220,000 compounds. About 2,100 (0.95%) were called active. The sample as a whole holds a higher share of actives than the screen did.
Outcome label depends on inhibition relative to -10%: at/above gives Condition met, below gives Condition not met.

compound	classification
O=C(Cn1nnc(-c2ccccc2)n1)NCc1ccccc1	Condition met
O=C(Cn1nnc(-c2ccccc2)n1)N/N=C/c1ccc(-c2ccc(Cl)cc2)o1	Condition met
Cc1c(/C=N/N2C(=O)C3C4C=CC(C4)C3C2=O)c2ccccc2n1C (configuration not stated)	Condition met
[O-][N+]12CCCCC1CCCC2CO (configuration not stated)	Condition met
O=C(CN1CCOCC1)N/N=C/c1ccc(-c2ccc(Br)cc2)o1	Condition not met
O=C(N/N=C/c1ccc(Br)o1)c1cncc(Br)c1	Condition not met
NC1=NC[C@@H](Cc2ccc(O)cc2)N1CC1CCCCC1	Condition not met
Oc1ccc(-c2nncn2-c2ccccc2)cc1	Condition not met
COc1ccc(CN2CCCC(C(=O)c3ccc(Cl)cc3)C2)cc1Cn1cncn1 (configuration not stated)	Condition not met
O=c1cc(CCl)nc2scc(-c3ccccc3)n12	Condition not met
C=CCN(c1ccccc1C(=O)NCC(=O)OCC)S(=O)(=O)c1ccc(C)cc1	Condition not met
C=CCSC(CC)(CC)C(N)=O	Condition not met

---

Below: a set of entries, each annotated with reported inhibition.
target: Induced myeloid leukemia cell differentiation protein Mcl-1 (Homo sapiens); assay: disruptors of Mcl-1 and Bid BH3 peptide – biochemical, TR-FRET, 1536-well, primary screen (AID 1021); details: TR-FRET Mcl-1/Bid-Dy647 peptide binding, at 21.7 µM, active compounds read high;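 further: His-tagged Mcl-1 with europium anti-His antibody binding Bid BH3 peptide; 0% = Mcl-1 plus peptide wells and 100% = peptide-only wells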
In all, about 220,000 compounds went through this assay and about 2,100 (0.95%) were called active. Shown is part of a subset that was picked to be rich in actives.
reported.property: inhibition (%)

compound	tested.system	data.value
CCOc1cc2c(cc1OCC)C(C(=O)O)C(c1ccc(OC)c(O)c1)N(C)C2=O (stereo not given)	Induced myeloid leukemia cell differentiation protein Mcl-1 (Homo sapiens)	-21.7
CN(c1ccccc1)S(=O)(=O)c1ccc(Cl)c(C(=O)OCC(=O)NCc2ccco2)c1	Induced myeloid leukemia cell differentiation protein Mcl-1 (Homo sapiens)	-33.3
O=C(Oc1cccc(N2C(=O)C3C4c5ccccc5C(c5ccccc54)C3C2=O)c1)c1ccco1 (stereo not given)	Induced myeloid leukemia cell differentiation protein Mcl-1 (Homo sapiens)	92
CC(=O)c1nnn(-c2ccc(Cl)cc2C#N)c1C	Induced myeloid leukemia cell differentiation protein Mcl-1 (Homo sapiens)	1.84
COc1ccc(CN2CCn3ncc(C(=O)Nc4ccc(Cl)cc4Cl)c3C2=O)cc1	Induced myeloid leukemia cell differentiation protein Mcl-1 (Homo sapiens)	32
COc1ccc(/C=C/CN2CCN(Cc3ccc(C)cc3)C(CCO)C2)cc1 (stereo not given)	Induced myeloid leukemia cell differentiation protein Mcl-1 (Homo sapiens)	-9.23
COc1cccc(C(=O)Nc2cccnc2)c1OC	Induced myeloid leukemia cell differentiation protein Mcl-1 (Homo sapiens)	-18.8
CCc1cc2cc(OC)ccc2nc1SCC(=O)Nc1cc(OC)c(OC)cc1C(=O)O	Induced myeloid leukemia cell differentiation protein Mcl-1 (Homo sapiens)	-3.27
COc1cccc(NC(=O)C2c3cc(OC)c(OC)cc3C(=O)N(C)C2c2cccnc2)c1 (stereo not given)	Induced myeloid leukemia cell differentiation protein Mcl-1 (Homo sapiens)	84.2
COCCN(CCOC)c1nc(N)c2c(N)nc3c(c2c1C#N)CC(=O)N3Cc1ccc(Cl)cc1	Induced myeloid leukemia cell differentiation protein Mcl-1 (Homo sapiens)	54.2

---

target: Induced myeloid leukemia cell differentiation protein Mcl-1 (Homo sapiens) (UniProt Q07820); assay: disruptors of Mcl-1 and Bid BH3 peptide – biochemical, TR-FRET, 1536-well, primary screen (AID 1021); details: TR-FRET Mcl-1/Bid-Dy647 peptide binding, at 21.7 µM;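 further: His-tagged Mcl-1 with europium anti-His antibody binding Bid BH3 peptide; 0% = Mcl-1 plus peptide wells and 100% = peptide-only wells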
About 2,100 (0.95%) of roughly 220,000 compounds were called active.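 Rule for the calls: active = compounds that cut the binding signal by more than half at the single screening dose; inactive = the rest.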 The sample as a whole holds a higher share of actives than the screen did.
Classes used: active, inactive

molecule	classification
O=C(NNC1=C(C(=O)C(F)(F)F)CCC1)c1ccncc1	inactive
Cc1cccc(NC(=O)c2cc(N3C(=O)CCC3=O)ccc2Cl)n1	active
CCN(CC)c1ccc(S(=O)(=O)N2CCOCC2)cc1NC(=O)CSc1cccc[n+]1[O-]	inactive
O=C(CN1CCCCCC1)NCCN1C(=O)S/C(=C\c2ccccc2Cl)C1=O	inactive
CC(Sc1nc2cc(Cl)ccc2s1)C(=O)Nc1ccc2c(c1)OCO2 (centres undefined)	inactive
CC1(C)CC(=O)C(C=NCCN2CCN(C(=S)Nc3cccc(Cl)c3)CC2)=C(O)C1	inactive
Cc1cc(F)ccc1NC(=O)C(C)n1c2ccccc2c2nc(=O)cc(C)n21 (centres undefined)	inactive
CC(C)CC(=O)NC(=S)NNC(=O)c1cccc([N+](=O)[O-])c1	inactive
CCc1ccnc(NS(=O)(=O)c2ccc3c(c2)OCCO3)c1	inactive
CCCCc1nnc(NC(=O)CSc2nc(N)cc(=O)[nH]2)s1	inactive
Cc1ccc(COc2ccc(C(=O)NN)cc2)cc1	active
COc1ccc(CN(C)C(=S)Nc2ccc(Cl)cc2Cl)cc1	inactive
Cc1nn(Cc2ccccc2)c2c1C(c1ccccc1)C(C#N)=C(N)O2 (centres undefined)	inactive
COc1cc(/C=N/Nc2nc3ccccc3s2)ccc1O	inactive
COC(=O)[C@H](CC(C)C)NC(=O)N1CCCCC1C (some centres undefined)	inactive
O=c1[nH]c2ccccc2n2c(-c3ccccc3)nnc12	active
O=C(NCc1ccco1)c1nn2cccnc2c1Cl	inactive
N#CCCCn1c(O)c(N=NC(=O)C(O)c2ccccc2)c2ccccc21 (centres undefined)	inactive
CCNC(=O)NC(=O)C(C)OC(=O)C1CCN(S(=O)(=O)c2ccccc2F)CC1 (centres undefined)	inactive
O=C(Nc1ccc(Cl)cc1)N1CCc2[nH]c3ccccc3c2C1	active
COc1cc(OC)cc(C(=O)Nc2ccc(S(=O)(=O)Nc3cc(C)on3)cc2)c1	inactive
Nc1c(Cl)cc(S(N)(=O)=O)cc1S(N)(=O)=O	inactive
CN(C)C(=O)c1nc2ccc(Cl)cn2c1CNCc1cccc(OC(F)(F)F)c1	inactive
Cc1nn(-c2ccccc2)c2c1C(c1ccc(F)cc1)C(C#N)=C(N)O2 (centres undefined)	inactive
COC(=O)CCCC1=CC2=C(c3ccccc3)C(=O)C(C)(OC(=O)C3CCCC3)C(=O)C2=CN1c1ccc(OC)cc1 (centres undefined)	inactive
COc1ccc(N2CCN(C(=O)COc3ccc4c(C)cc(=O)oc4c3)CC2)cc1	inactive
COc1cc(S(=O)(=O)N(Cc2cccs2)C2CC2)ccc1-n1cnnn1	inactive
COc1ccc(OC)c(Nc2nc3ccccc3n3cnnc23)c1	inactive
Cc1ccc(S/C(=N\S(=O)(=O)c2ccc(Cl)cc2)c2ccccc2)cc1	active
Cc1ccccc1CN(c1ccc(C(=O)NCC2CCCO2)cc1)S(C)(=O)=O (centres undefined)	inactive
O=C1NNC(c2ccccc2)=N/C1=C\c1ccc(Cl)cc1	inactive
COCCCNc1nc2c(-c3cccc(C(F)(F)F)c3)nnn2c2ccccc12	inactive
CN(C)/C=C(/C(=O)c1ccccc1Cl)S(C)(=O)=O	inactive
Clc1ccc(C[n+]2cc(-c3ccc(Cl)cc3)n3c2CCC3)cc1	inactive
COc1ccc(C(=O)OCC(=O)NCC2CCCO2)cc1[N+](=O)[O-] (centres undefined)	inactive
Fc1ccc(NC(=S)N2CCc3[nH]c4ccccc4c3C2)cc1	inactive
CCCNC(=O)NC(=O)COC(=O)CC(NC(N)=O)c1ccc(Cl)cc1 (centres undefined)	inactive
Cc1cc(NC(=O)c2cccc(N3C(=O)CCC3=O)c2)no1	inactive
Cc1ccc(-c2nc3ccccc3[nH]c2=O)cc1	inactive
CNS(=O)(=O)c1ccc(N2CCCC2=O)c([N+](=O)[O-])c1	inactive
CC(NC(=O)COC(=O)c1ccc2c(c1)OCO2)c1ccccc1 (centres undefined)	inactive
CCC(C)(C)NC(=O)C1c2ccccc2Oc2ccccc21	inactive
Cc1ccc(S(=O)(=O)/N=C(/Nc2ccccn2)c2ccc(Cl)cc2)cc1	inactive
CCO[C@@H]1OC(C(=O)NCc2nc3ccccc3[nH]2)=C[C@H](C2CCCCC2)[C@H]1CCCO	inactive
